# target_system: recombinant N-terminal GST-tagged human Rho kinase 2 (ROCK2, amino acids 1-552) (Homo sapiens, UniProt O75116)
# Construct: ROCK2, amino acids 1-552; purchased Invitrogen Inc. PV3759
# Sequence (O75116 1-552): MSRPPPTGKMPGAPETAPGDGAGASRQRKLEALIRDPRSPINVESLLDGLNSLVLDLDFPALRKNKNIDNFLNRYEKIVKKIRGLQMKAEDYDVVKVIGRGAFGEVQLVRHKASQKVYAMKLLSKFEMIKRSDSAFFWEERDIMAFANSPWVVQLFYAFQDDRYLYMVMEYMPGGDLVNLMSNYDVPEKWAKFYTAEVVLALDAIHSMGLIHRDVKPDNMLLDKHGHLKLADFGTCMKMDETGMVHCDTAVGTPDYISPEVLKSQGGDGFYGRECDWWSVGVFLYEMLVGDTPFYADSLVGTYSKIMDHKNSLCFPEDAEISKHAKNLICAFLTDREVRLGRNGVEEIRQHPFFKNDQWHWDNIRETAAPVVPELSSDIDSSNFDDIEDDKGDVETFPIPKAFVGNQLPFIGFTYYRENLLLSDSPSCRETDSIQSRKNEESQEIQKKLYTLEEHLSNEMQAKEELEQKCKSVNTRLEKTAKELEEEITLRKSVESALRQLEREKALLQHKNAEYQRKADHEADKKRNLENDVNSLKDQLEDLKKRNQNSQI
# test_description: In vitro Rho kinase assay (luciferase-based ATP consumption), ROCK2
# Format: biochemical
# condition_label: recombinant GST-tagged human ROCK2, luciferase-based ATP consumption; read-out: ROCK2 IC50
pIC50: −log10 of the molar value.
readout: pIC50

compound=Cc1c(-c2ccnc(N)n2)sc2ccc(C(=O)N3CCN(c4cccc(Cl)c4)CC3)cc12 result="> 5.30"
compound=Cc1c(-c2ccnc(N)n2)sc2ccc(C(=O)NC3CCCCC3)cc12 result="< 5.30"
compound="CCOC(=O)CC1C(=O)NCCN1C(=O)c1ccc2sc(-c3ccnc(N)n3)c(C)c2c1 (stereo not shown)" result="> 5.30"
compound=Cc1c(-c2ccnc(N)n2)sc2ccc(C(=O)N3CCC(O)(c4ccc(Cl)cc4)CC3)cc12 result="< 5.30"
compound=Cc1c(-c2ccnc(N)n2)sc2ccc(C(=O)NCCOc3ccccc3)cc12 result="> 5.30"
compound=CNC(=O)c1ccc2sc(-c3ccnc(N)n3)c(C)c2c1 result="> 5.30"
compound="COCC(C)NC(=O)c1ccc2sc(-c3ccnc(N)n3)c(C)c2c1 (stereo not shown)" result="< 5.30"
compound="Cc1c(-c2ccnc(N)n2)sc2ccc(CNC(=O)C3CCCO3)cc12 (stereo not shown)" result="> 5.30"
compound=Cc1c(-c2ccnc(N)n2)sc2ccc(C(=O)NCCc3cccc(F)c3)cc12 result="> 5.30"
compound=Cc1c(-c2ccnc(N)n2)sc2ccc(C(=O)N(C)CCc3ccccn3)cc12 result="< 5.30"
compound="Cc1c(-c2ccnc(N)n2)sc2ccc(C(=O)N3CCCC(C(N)=O)C3)cc12 (stereo not shown)" result="> 5.30"
compound=Cc1cccc(C(=O)NCc2ccc3sc(-c4ccnc(N)n4)c(C)c3c2)c1[N+](=O)[O-] result="> 5.30"
compound=Cc1ccc(Cl)cc1N1CCN(C(=O)c2ccc3sc(-c4ccnc(N)n4)c(C)c3c2)CC1 result="> 5.30"
compound=CCN(CCO)C(=O)c1ccc2sc(-c3ccnc(N)n3)c(C)c2c1 result="> 5.30"
compound=CCOC(=O)C1CCN(C(=O)c2ccc3sc(-c4ccnc(N)n4)c(C)c3c2)CC1 result="< 5.30"
compound=Cc1c(-c2ccnc(N)n2)sc2ccc(C(=O)N3CCN(c4ccc(O)cc4)CC3)cc12 result="> 5.30"
compound=Cc1c(-c2ccnc(N)n2)sc2ccc(CNC(=O)c3ccccc3C(=O)c3ccc(O)cc3)cc12 result="> 5.30"
compound=Cc1cc(C(=O)NCc2ccc3sc(-c4ccnc(N)n4)c(C)c3c2)cc(Cl)n1 result="> 5.30"
compound=CCN(C(=O)c1ccc2sc(-c3ccnc(N)n3)c(C)c2c1)C1CCCCC1 result="> 5.30"
compound=Cc1c(-c2ccnc(N)n2)sc2ccc(C(=O)N(CCC#N)Cc3ccccc3)cc12 result="> 5.30"
compound=Cc1c(-c2ccnc(N)n2)sc2ccc(CNC(=O)c3cscn3)cc12 result="> 5.30"
compound="Cc1c(-c2ccnc(N)n2)sc2ccc(C(=O)N3CCCCC3CO)cc12 (stereo not shown)" result="> 5.30"
compound=Cc1c(-c2ccnc(N)n2)sc2ccc(C(=O)N(C)CC(C)C)cc12 result="> 5.30"
compound=Cc1c(-c2ccnc(N)n2)sc2ccc(C(=O)N(CCO)CCO)cc12 result="> 5.30"
compound=Cc1ccccc1CNC(=O)c1ccc2sc(-c3ccnc(N)n3)c(C)c2c1 result="> 5.30"
compound=Cc1c(-c2ccnc(N)n2)sc2ccc(C(=O)NC3CCN(Cc4ccccc4)CC3)cc12 result="> 5.30"
compound="Cc1c(-c2ccnc(N)n2)sc2ccc(C(=O)N3CCC(N(C)C)C3)cc12 (stereo not shown)" result="> 5.30"
compound=Cc1c(-c2ccnc(N)n2)sc2ccc(CNC(=O)c3ccccc3Oc3ccccc3)cc12 result="< 5.30"
compound=Cc1c(-c2ccnc(N)n2)sc2ccc(CNC(=O)c3c4ccccc4cc4ccccc34)cc12 result="> 5.30"
compound=COc1ccc(Cc2ccc3sc(-c4ccnc(N)n4)c(C)c3c2)cc1 result="< 5.30"
compound=Cc1c(-c2ccnc(N)n2)sc2ccc(Nc3cccc(NS(C)(=O)=O)c3)cc12 result="> 5.30"
compound=Cc1c(-c2ccnc(N)n2)sc2ccc(C(=O)NCc3ccc(C(F)(F)F)cc3)cc12 result="< 5.30"
compound="Cc1c(-c2ccnc(N)n2)sc2ccc(C(=O)NC(C)Cc3ccncc3)cc12 (stereo not shown)" result="> 5.30"
compound=Cc1c(-c2ccnc(N)n2)sc2ccc(CNC(=O)c3c(F)c(F)c(F)c(F)c3F)cc12 result="> 5.30"
